Kindly state MRT for each of the entries shown.
- ASSAY_TEXT: Pharmacokinetic study in rats (intragastric administration and intravenous injection, LC/MS/MS)
- Assay type: in vivo, SD rats
- TEST_SETTINGS: both sexes, SD, plasma, po; rat, intragastric administration, 2 mg/kg; read-out: Residence time MRT
Dear colleague, please return just the value in h, with no unit written.

**Query** Consider the molecule O=C(O)[C@H]1O[C@@H](N(c2ccc3c(c2)OC(F)(F)O3)c2ccc3cccc(Cl)c3n2)[C@H](O)[C@@H](O)[C@@H]1O and give its measured MRT.
**Result** 4.32

**Query** Consider the molecule O=C(O)[C@H]1O[C@@H](N(c2ccc(OC(F)(F)F)cc2)c2ccc3cccc(Cl)c3n2)[C@H](O)[C@@H](O)[C@@H]1O [A, reference compound] and give its measured MRT.
**Result** 3.76
